Tested on: biotinylated labeled human GPC3 protein (produced in-house) (human, UniProt P51654 25-559, limits assumed, biotinylated (Dojindo, Cat. No. LK03); sites not stated)
Protocol summary: ELISA, biotinylated human GPC3 protein
Observable: OD450 at 0.11 nM (OD450)
Field format: number, assumed OD450, no unit text.

Worked cases, answers included:
>>> numeric_result("hAb001H2L1 (antibody, human IgG1, V domains shown, Humanized F2.169.2; VH H2 + VL L1; expressed as human IgG1) VH: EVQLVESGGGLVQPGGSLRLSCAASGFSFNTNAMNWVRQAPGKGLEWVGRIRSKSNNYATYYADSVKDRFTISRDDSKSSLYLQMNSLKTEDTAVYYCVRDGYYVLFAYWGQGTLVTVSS VL: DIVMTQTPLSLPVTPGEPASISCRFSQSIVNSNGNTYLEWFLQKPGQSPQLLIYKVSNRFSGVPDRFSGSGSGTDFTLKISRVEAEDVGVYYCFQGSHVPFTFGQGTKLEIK")
1.97
>>> numeric_result("hAb007LH2L1 (antibody, human IgG1, V domains shown, Humanized F3.81.19; VH H2 + VL L1; expressed as human IgG1) VH: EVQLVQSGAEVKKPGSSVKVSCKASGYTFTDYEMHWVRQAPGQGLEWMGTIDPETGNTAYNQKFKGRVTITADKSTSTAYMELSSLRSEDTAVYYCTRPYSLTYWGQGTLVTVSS VL: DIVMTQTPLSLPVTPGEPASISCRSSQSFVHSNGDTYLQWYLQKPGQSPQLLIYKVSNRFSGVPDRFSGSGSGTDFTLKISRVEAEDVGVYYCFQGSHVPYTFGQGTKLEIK")
1.72

Per the records, this binder ( hAb001H2L1a (antibody, human IgG1, V domains shown, Humanized F2.169.2; VH H2 + VL L1a; expressed as human IgG1) VH: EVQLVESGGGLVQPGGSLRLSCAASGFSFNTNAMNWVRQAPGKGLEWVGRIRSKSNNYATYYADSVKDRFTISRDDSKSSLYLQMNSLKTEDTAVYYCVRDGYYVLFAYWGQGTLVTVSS VL: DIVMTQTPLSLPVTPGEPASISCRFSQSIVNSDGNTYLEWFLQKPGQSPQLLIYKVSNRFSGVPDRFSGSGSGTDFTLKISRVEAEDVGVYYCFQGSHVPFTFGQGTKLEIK ) has OD450 at 0.11 nM equal to 1.53
